- assay notes: Pharmacokinetics and bioavailability in dogs
- Type: in vivo
- condition parameters: in vivo, 10 mg/kg; dog, oral; read-out: average apparent bioavailable fraction
experimental readout: bioavailability (%)
One number for each entry, in %.

# get_value(readout='bioavailability', item= CCOC(=O)C1=C(C)NC(C)=C(C(=O)OCCN2CCCCC2)C1c1cccc([N+](=O)[O-])c1 (stereo not shown) )
19.4

---

- assay notes: Bioavailability after oral administration in normal volunteers
- Type: in vivo, human
- condition parameters: human, plasma, po, after multiple-doses administration, mean of 4 volunteers; read-out: T1/2 el. (converted)
experimental readout: half-life (h)
One number for each entry, in h.

# get_value(readout='half-life', item= CCOC(=O)C1=C(C)NC(C)=C(C(=O)OCCN2CCCCC2)C1c1cccc([N+](=O)[O-])c1 (stereo not shown) )
4.29

---

- assay notes: Bioavailability after oral administration in normal volunteers
- Type: in vivo, human
- condition parameters: human, plasma, po, 20 mg, after acute administration, volunteer 4; read-out: T1/2 el. (converted)
- Method: The study was performed in 4 male subjects aged 26-43 years. Pharmacokinetic studies were performed both after acute and repeated administrations. Acute administration […] Further venous blood samples were withdrawn 15-30 minutes and 1.0-1.5-2.0-4.0-6.0-8.0 hours after treatment. Multiple-doses administration […] Blood samples were withdrawn 2-4-8-12 hours after the last treatment.
experimental readout: half-life (h)
Give bare numbers, in h.

# get_value(readout='half-life', item= CCOC(=O)C1=C(C)NC(C)=C(C(=O)OCCN2CCCCC2)C1c1cccc([N+](=O)[O-])c1 (stereo not shown) [YS 201] )
2.66

---

- assay notes: Bioavailability after oral administration in normal volunteers
- Assay type: in vivo, human
- condition parameters: human, plasma, po, 20 mg, acute study, oral 20 mg; read-out: average T max (converted)
experimental readout: Tmax (h)
One number for each entry, in h.

# get_value(readout='Tmax', item= CCOC(=O)C1=C(C)NC(C)=C(C(=O)OCCN2CCCCC2)C1c1cccc([N+](=O)[O-])c1 (stereo not shown) )
1.5

---

- assay notes: Bioavailability after oral administration in normal volunteers
- Type: in vivo, human
- condition parameters: human, plasma, po, 20 mg, oral 20 mg, mean of 4 volunteers; read-out: C max
experimental readout: Cmax (ng/mL)
Answers are plain numbers, in ng/mL.

# get_value(readout='Cmax', item= CCOC(=O)C1=C(C)NC(C)=C(C(=O)OCCN2CCCCC2)C1c1cccc([N+](=O)[O-])c1 (stereo not shown) [YS 201] )
64.8

---

- assay notes: Bioavailability after oral administration in normal volunteers
- Type: in vivo, human
- condition parameters: human, plasma, po, after multiple-doses administration, volunteer 4; read-out: T1/2 el. (converted)
experimental readout: half-life

# get_value(readout='half-life', item= CCOC(=O)C1=C(C)NC(C)=C(C(=O)OCCN2CCCCC2)C1c1cccc([N+](=O)[O-])c1 (stereo not shown) [YS 201] )
4.49 h

---

- assay notes: Bioavailability after oral administration in normal volunteers
- Format: in vivo, human
- condition parameters: human, plasma, po, 20 mg, acute study, oral 20 mg; ±2.65 S.E.; read-out: mean peak plasma level
- Procedure: The study was performed in 4 male subjects aged 26-43 years. Pharmacokinetic studies were performed both after acute and repeated administrations. Acute administration […] Further venous blood samples were withdrawn 15-30 minutes and 1.0-1.5-2.0-4.0-6.0-8.0 hours after treatment. Multiple-doses administration […] Blood samples were withdrawn 2-4-8-12 hours after the last treatment.
experimental readout: Cmax (ng/mL)
Numbers only, in ng/mL.

# get_value(readout='Cmax', item= CCOC(=O)C1=C(C)NC(C)=C(C(=O)OCCN2CCCCC2)C1c1cccc([N+](=O)[O-])c1 (stereo not shown) )
57.2

---

- assay notes: Bioavailability after oral administration in normal volunteers
- Type: in vivo, human
- Design: concentration or dose not given beside the values
- condition parameters: human, plasma, po, volunteer 1
experimental readout: AUC (ng·h/mL)
Numbers only, in ng·h/mL.

# get_value(readout='AUC', item= CCOC(=O)C1=C(C)NC(C)=C(C(=O)OCCN2CCCCC2)C1c1cccc([N+](=O)[O-])c1 (stereo not shown) )
219

---

- assay notes: Bioavailability after oral administration in normal volunteers
- Type: in vivo, human
- condition parameters: human, plasma, po, 20 mg, oral 20 mg, volunteer 1; read-out: C max
experimental readout: Cmax (ng/mL)
One number for each entry, in ng/mL.

# get_value(readout='Cmax', item= CCOC(=O)C1=C(C)NC(C)=C(C(=O)OCCN2CCCCC2)C1c1cccc([N+](=O)[O-])c1 (stereo not shown) )
56

---

- assay notes: Pharmacokinetics and bioavailability in dogs
- Format: in vivo
- condition parameters: in vivo; dog, 10 mg/kg oral, hydrochloride; read-out: mean apparent half-life of elimination
experimental readout: half-life (h)
Numbers only, in h.

# get_value(readout='half-life', item= CCOC(=O)C1=C(C)NC(C)=C(C(=O)OCCN2CCCCC2)C1c1cccc([N+](=O)[O-])c1 (stereo not shown) )
2.47

---

- assay notes: Bioavailability after oral administration in normal volunteers
- Type: in vivo, human
- condition parameters: human, plasma, po, after multiple-doses administration, volunteer 1; read-out: T1/2 el. (converted)
experimental readout: half-life (h)
One number for each entry, in h.

# get_value(readout='half-life', item= CCOC(=O)C1=C(C)NC(C)=C(C(=O)OCCN2CCCCC2)C1c1cccc([N+](=O)[O-])c1 (stereo not shown) )
4.11

---

- assay notes: Bioavailability after oral administration in normal volunteers
- Assay type: in vivo, human
- Parameters: concentration or dose not given beside the values
- condition parameters: human, plasma, po, volunteer 4
experimental readout: AUC (ng·h/mL)
Numbers only, in ng·h/mL.

# get_value(readout='AUC', item= CCOC(=O)C1=C(C)NC(C)=C(C(=O)OCCN2CCCCC2)C1c1cccc([N+](=O)[O-])c1 (stereo not shown) )
388

---

- assay notes: Bioavailability after oral administration in normal volunteers
- Format: in vivo, human
- condition parameters: human, plasma, po, after multiple-doses administration, volunteer 3; read-out: T1/2 el. (converted)
- Protocol: The study was performed in 4 male subjects aged 26-43 years. Pharmacokinetic studies were performed both after acute and repeated administrations. Acute administration […] Further venous blood samples were withdrawn 15-30 minutes and 1.0-1.5-2.0-4.0-6.0-8.0 hours after treatment. Multiple-doses administration […] Blood samples were withdrawn 2-4-8-12 hours after the last treatment.
experimental readout: half-life
Reply with the number, then its unit.

# get_value(readout='half-life', item= CCOC(=O)C1=C(C)NC(C)=C(C(=O)OCCN2CCCCC2)C1c1cccc([N+](=O)[O-])c1 (stereo not shown) [YS 201] )
4.12 h

---

- assay notes: Bioavailability after oral administration in normal volunteers
- Type: in vivo, human
- condition parameters: human, plasma, po, 20 mg, oral 20 mg, volunteer 2; read-out: C max
experimental readout: Cmax (ng/mL)
Give bare numbers, in ng/mL.

# get_value(readout='Cmax', item= CCOC(=O)C1=C(C)NC(C)=C(C(=O)OCCN2CCCCC2)C1c1cccc([N+](=O)[O-])c1 (stereo not shown) [YS 201] )
55

---

- assay notes: Bioavailability after oral administration in normal volunteers
- Format: in vivo, human
- condition parameters: human, plasma, po, 20 mg, oral 20 mg, volunteer 4; read-out: T max
experimental readout: Tmax (h)
Give bare numbers, in h.

# get_value(readout='Tmax', item= CCOC(=O)C1=C(C)NC(C)=C(C(=O)OCCN2CCCCC2)C1c1cccc([N+](=O)[O-])c1 (stereo not shown) )
1

---

I'd be grateful if you could share measured Cmax for these entries.
- assay notes: Pharmacokinetics and bioavailability in dogs
- Format: in vivo
- condition parameters: in vivo; dog, oral, 10 mg/kg; read-out: maximum concentration (Cmax)
Give bare numbers, in ng/mL.

CCOC(=O)C1=C(C)NC(C)=C(C(=O)OCCN2CCCCC2)C1c1cccc([N+](=O)[O-])c1 (centres unmarked) = 284

# get_value(readout='Cmax', item= COC(=O)C1=C(C)NC(C)=C(C(=O)OCCN(C)Cc2ccccc2)C1c1cccc([N+](=O)[O-])c1 (centres unmarked) )
220
